Consider the following compounds and their measured solubility kinetic readings.
reportedConditions: buffer; pH 7.4; 200.0 µM
The answer is to be given in µg/mL; state only the numeric part.

Answered cases to consult:
Give the reported solubility kinetic for this compound. `COCCNC(=S)c1ccc(Br)cc1`
34.5

Give the reported solubility kinetic for this compound. `Cc1ccc(NC(=S)N2CCCCC2)cc1C`
30.5

Give the reported solubility kinetic for this compound. `N#CC(C#N)=C1NC2(CCCCC2)Cc2ccccc21`
0.8

Give the reported solubility kinetic for this compound. `CCOC(=O)c1c(C)[nH]c(C)c1C(=O)COC(=O)/C=C/c1ccccc1[N+](=O)[O-]`
6

Give the reported solubility kinetic for this compound. `COc1cccc(-c2noc(CCC(=O)NCCc3ccccc3)n2)c1`
44.3

Give the reported solubility kinetic for this compound. `COc1ccccc1CNC(=O)c1sccc1C`
26.6

Give the reported solubility kinetic for this compound. `N#Cc1c(-c2ccco2)ccn(Cc2ccc(F)cc2)c1=O`
9

Give the reported solubility kinetic for this compound. Cc1ccc2[nH]c(=O)c3cc(C(=O)NCC4CCCO4)sc3c2c1 (stereo not drawn)
1

Give the reported solubility kinetic for this compound. O=C(NC1CCC(O)CC1)c1ccc(-c2ccc(Cl)cc2)o1 (stereo not drawn)
18.7

Give the reported solubility kinetic for this compound. `CC(C)CC(=O)N/C(N)=N/c1nc2ccccc2o1`
1.3

***
Give the reported solubility kinetic for this compound. `COC(=O)c1c(C)[nH]c(C)c1-c1ccc([N+](=O)[O-])cc1`
36.3

Give the reported solubility kinetic for this compound. `COc1cccc(-c2cc(C(=O)NCc3ccco3)c3ccccc3n2)c1`
11.6

Give the reported solubility kinetic for this compound. CCCCC(CC)COCCCN=Cc1c(O)[nH]c(=S)[nH]c1=O (stereo not drawn)
4.1

---

reportedConditions: buffer; pH 7.4; 200.0 µM
resultType: solubility kinetic

Answered cases to consult:
Give the reported solubility kinetic for this compound. `O=C(Nc1nnc(C2=COCCO2)o1)c1cccc(F)c1`
> 43.7 µg/mL

Give the reported solubility kinetic for this compound. `COc1ccc(-c2nc3n(c(=O)c2C#N)CCS3)c(OC)c1`
> 47.3 µg/mL

Give the reported solubility kinetic for this compound. `O=C(COC(=O)C1CCC1)NCCc1ccc(Cl)cc1Cl`
> 49.5 µg/mL

Give the reported solubility kinetic for this compound. `Cc1ccc(Sc2ccc(S(=O)(=O)Nc3ccc(C(=O)O)cc3)cc2)cc1C`
> 62 µg/mL

Give the reported solubility kinetic for this compound. `CN1CCN(S(=O)(=O)Cc2ccccc2Cl)CC1`
> 43.3 µg/mL

Give the reported solubility kinetic for this compound. `COc1ccc(/C=C/c2nc(-c3ccccc3)cc(=O)[nH]2)cc1`
< 0.3 µg/mL

Give the reported solubility kinetic for this compound. CC(c1ccccc1)C1CC(=O)N(c2cc(Cl)ccn2)C1=O (stereo not drawn)
> 47.2 µg/mL

Give the reported solubility kinetic for this compound. CC1(C)COC(Cn2c3ccccc3c3ccccc32)O1 (stereo not drawn)
< 0.6 µg/mL

Give the reported solubility kinetic for this compound. `COc1ccc(CCNC(=O)CCc2nc3ccccc3[nH]2)cc1OC`
> 53 µg/mL

Give the reported solubility kinetic for this compound. O=C(CSc1nc2cc(Cl)ccc2s1)NCC1CCCO1 (stereo not drawn)
> 51.4 µg/mL

***
Give the reported solubility kinetic for this compound. `COc1ccc(-c2csc3nc(-c4ccccc4F)oc(=O)c23)cc1`
< 0.8 µg/mL

Give the reported solubility kinetic for this compound. `Clc1ccc2c(N3CCOCC3)ccnc2c1`
> 37.3 µg/mL

Give the reported solubility kinetic for this compound. `O=C(CSc1ccc(F)cc1)N1CCOCC1`
> 38.3 µg/mL

Give the reported solubility kinetic for this compound. `O=S(=O)(Nc1nc2ccc(Cl)cc2s1)c1cccs1`
12.2 µg/mL

Give the reported solubility kinetic for this compound. `CC1(C)CC(NS(=O)(=O)c2ccc(Cl)cc2)CC(C)(C)N1`
> 49.6 µg/mL

Give the reported solubility kinetic for this compound. `COC(=O)/C(=C\C(=O)c1ccc([N+](=O)[O-])cc1)Nc1ccc(OC)cc1`
< 0.4 µg/mL

Give the reported solubility kinetic for this compound. `COc1cccc(C(=O)Nc2sc3c(c2C(=O)O)CCCC3)c1`
> 49.7 µg/mL

Give the reported solubility kinetic for this compound. CC1CCCC(C)N1C(=O)COC(=O)CCC1CCCC1 (stereo not drawn)
30.1 µg/mL
